Below are compounds with their IC50 as measured on human proteinase 3 (Homo sapiens, UniProt P24158).
Sequence (P24158 28-248): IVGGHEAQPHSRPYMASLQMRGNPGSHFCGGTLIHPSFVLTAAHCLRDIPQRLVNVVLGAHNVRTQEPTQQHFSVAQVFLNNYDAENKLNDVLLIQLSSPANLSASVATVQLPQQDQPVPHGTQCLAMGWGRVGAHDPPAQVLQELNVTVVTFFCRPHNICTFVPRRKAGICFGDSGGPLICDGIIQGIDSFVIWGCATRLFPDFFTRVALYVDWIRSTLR
Where a SMILES comes first, the peptide text is derived from it. [ ]: non-standard residue; d: D form. Gly(octyl) = CCCCCCCC[C@H](N)C(=O)O; hTyr = N[C@@H](CCc1ccc(O)cc1)C(=O)O
property.label: IC50 (µM)

{"compound": "CCCCCCCC[C@@H]1NC(=O)[C@H](Cc2ccc(O)cc2)NC(=O)[C@@H](C(C)C)NC(=O)[C@H]([C@@H](C)O)NC(=O)[C@H](CCCCN)NC(=O)[C@H](CCC(N)=O)NC(=O)[C@@H]2CCCN2C(=O)[C@@H]2CCCN2C(=O)[C@H]([C@@H](C)CC)NC(=O)[C@H](CO)NC(=O)[C@H](C)NC(=O)[C@H]([C@@H](C)O)NC(=O)[C@H](CCC(=O)O)NC1=O [Example 21] (cyclo([Gly(octyl)]ETASIPPQKT[dV]Y))", "system": "human proteinase 3 (Homo sapiens, UniProt P24158)", "property.label": "IC50", "reported.measurement": 13}
{"compound": "CCCCCCCC[C@@H]1NC(=O)[C@@H]2CCCN2C(=O)[C@H]2CCCN2C(=O)[C@H](CO)NC(=O)[C@H](CCCCN)NC(=O)[C@H](CCC(N)=O)NC(=O)[C@@H]2CCCN2C(=O)[C@@H]2CCCN2C(=O)[C@H]([C@@H](C)CC)NC(=O)[C@H](CO)NC(=O)[C@H](C)NC(=O)[C@H]([C@@H](C)O)NC(=O)[C@H](CCc2ccc(O)cc2)NC1=O [Example 47] (cyclo([Gly(octyl)][hTyr]TASIPPQKS[dP]P))", "system": "human proteinase 3 (Homo sapiens, UniProt P24158)", "property.label": "IC50", "reported.measurement": 1}

Origin of measurements: patent US10273267B2
